# measured_on: adenosine 2a receptor (Homo sapiens)
# protocol_text: Agonist activity against adenosine 2a receptor (CHO cells, cAMP/SPAP reporter)
# Assay type: cell-based
# test_settings: CHO cells transfected with human receptor; basal cAMP via SPAP; mean of all the versions tested
recorded_metric: A2a EC50 as a ratio of that of NECA

| molecule | recorded_metric | observed_result |
| --- | --- | --- |
| Cn1nnc([C@H]2O[C@@H](n3cnc4c(NCC(c5ccccc5)c5ccccc5)nc(N[C@@H]5CCC[C@H]5O)nc43)[C@H](O)[C@@H]2O)n1.O=CO [Example 96] | A2a EC50 as a ratio of that of NECA | 2.14 |
| CCn1nnc([C@H]2O[C@@H](n3cnc4c(NCC(c5ccccc5)c5ccccc5)nc(NCCN5CCOCC5)nc43)[C@H](O)[C@@H]2O)n1.O=C(O)C(F)(F)F.O=C(O)C(F)(F)F.O=C(O)C(F)(F)F [Example 44] | A2a EC50 as a ratio of that of NECA | 3.25 |
| CCn1nnc([C@H]2O[C@@H](n3cnc4c(NCCc5ccccc5)nc(NCCN5CCOCC5)nc43)[C@H](O)[C@@H]2O)n1 [Example 49] | A2a EC50 as a ratio of that of NECA | 3.28 |

###

# measured_on: adenosine 3 receptor (Homo sapiens, UniProt P0DMS8)
# Sequence (P0DMS8 whole entry): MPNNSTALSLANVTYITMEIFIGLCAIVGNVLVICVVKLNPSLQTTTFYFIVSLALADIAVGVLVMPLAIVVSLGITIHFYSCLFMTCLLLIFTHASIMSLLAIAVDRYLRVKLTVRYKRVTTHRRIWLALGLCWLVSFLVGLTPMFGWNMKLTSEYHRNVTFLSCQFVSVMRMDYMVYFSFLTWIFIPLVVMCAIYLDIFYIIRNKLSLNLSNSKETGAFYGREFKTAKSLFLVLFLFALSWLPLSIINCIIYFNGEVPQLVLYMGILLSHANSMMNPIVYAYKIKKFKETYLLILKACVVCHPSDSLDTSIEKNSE
# protocol_text: Agonist activity against adenosine 3 receptor (CHO cells, forskolin-enhanced cAMP/SPAP reporter)
# Assay type: cell-based
# test_settings: CHO cells transfected with human receptor; forskolin-enhanced cAMP via SPAP; mean of all the versions tested

| compound | A3 EC50 as a ratio of that of NECA |
| --- | --- |
| CCn1nnc([C@H]2O[C@@H](n3cnc4c(NCC(c5ccccc5)c5ccccc5)nc(NC5CCNC5)nc43)[C@H](O)[C@@H]2O)n1.O=C(O)C(F)(F)F.O=C(O)C(F)(F)F.O=C(O)C(F)(F)F (stereo partly drawn) | >216 |
| Cn1cnc(CCNc2nc(NCc3cccc(I)c3)c3ncn([C@@H]4O[C@H](c5nnn(C)n5)[C@@H](O)[C@H]4O)c3n2)c1.O=CO | >105 |
| CC(C)n1nnc([C@H]2O[C@@H](n3cnc4c(NCCC(C)(C)C)nc(NCCc5cn(C)cn5)nc43)[C@H](O)[C@@H]2O)n1.O=CO | >297 |

###

# measured_on: adenosine 2a receptor (Homo sapiens, UniProt P29274)
# Sequence (P29274 whole entry): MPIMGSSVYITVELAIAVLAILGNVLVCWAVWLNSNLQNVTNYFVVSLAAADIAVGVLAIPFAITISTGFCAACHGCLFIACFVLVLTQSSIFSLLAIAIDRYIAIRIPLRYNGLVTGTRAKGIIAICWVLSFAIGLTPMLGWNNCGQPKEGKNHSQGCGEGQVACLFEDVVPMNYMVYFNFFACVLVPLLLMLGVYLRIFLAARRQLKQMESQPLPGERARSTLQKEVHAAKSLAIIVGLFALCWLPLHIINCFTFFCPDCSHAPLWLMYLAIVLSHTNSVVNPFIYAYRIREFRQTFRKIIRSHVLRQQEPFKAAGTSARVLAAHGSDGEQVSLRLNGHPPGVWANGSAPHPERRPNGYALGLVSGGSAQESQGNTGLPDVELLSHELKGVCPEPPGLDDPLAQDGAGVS
# protocol_text: Agonist activity against adenosine 2a receptor (CHO cells, cAMP/SPAP reporter)
# Type: cell-based
# test_settings: CHO cells transfected with human receptor; basal cAMP via SPAP; mean of all the versions tested
Hi! Could you tag entries with A2a EC50 as a ratio of that of NECA below 2 as MET, and those at or above as NOT MET? Much appreciated.

| compound | group_label |
| --- | --- |
| CCn1nnc(C2OC(n3cnc4c(NCC(c5ccccc5)c5ccccc5)nc(NC5CCNC5)nc43)C(O)C2O)n1 (centres unmarked) | NOT MET |
| CCn1nnc(C2OC(n3cnc4c(NC(CO)Cc5ccccc5)nc(NC5CCNC5)nc43)C(O)C2O)n1 (centres unmarked) | NOT MET |
| CCC(CC)Nc1nc(NC2CCCC2O)nc2c1ncn2C1OC(c2nnn(C)n2)C(O)C1O.O=CO.O=CO (centres unmarked) | NOT MET |
| CC(C)n1nnc([C@H]2O[C@@H](n3cnc4c(NC5CCCC5)nc(NCCc5cn(C)cn5)nc43)[C@H](O)[C@@H]2O)n1.O=CO | MET |
| Cn1cnc(CCNc2nc(NCc3cccc(I)c3)c3ncn([C@@H]4O[C@H](c5nnn(C)n5)[C@@H](O)[C@H]4O)c3n2)c1.O=CO | MET |
| CCn1nnc([C@H]2O[C@@H](n3cnc4c(NCCc5ccccc5)nc(NCCc5cn(C)cn5)nc43)[C@H](O)[C@@H]2O)n1.Cl.Cl | MET |
| Cn1nnc(C2OC(n3cnc4c(NC(CO)Cc5ccccc5)nc(NC5CCC(N)CC5)nc43)C(O)C2O)n1 (centres unmarked) | MET |
| CCC(CC)Nc1nc(NCCN2CCCC2)nc2c1ncn2C1OC(c2nnn(C)n2)C(O)C1O.O=CO.O=CO (centres unmarked) | NOT MET |
| CCn1nnc(C2OC(n3cnc4c(NCCC5CCCCC5)nc(NC5CCNC5)nc43)C(O)C2O)n1 (centres unmarked) [Example 73] | NOT MET |
| COc1ccc(CCNc2nc(N)c3ncn([C@@H]4O[C@H](c5nnn(C)n5)[C@@H](O)[C@H]4O)c3n2)cc1OC.O=CO | MET |
| CCn1nnc([C@H]2O[C@@H](n3cnc4c(N)nc(NCCc5ccc(O)c(O)c5)nc43)[C@H](O)[C@@H]2O)n1.O=CO | MET |
| CC(=O)O.CCn1nnc([C@H]2O[C@@H](n3cnc4c(NCCC(C)(C)C)nc(NCCNc5ccccn5)nc43)[C@H](O)[C@@H]2O)n1 | MET |
| CCn1nnc([C@H]2O[C@@H](n3cnc4c(NCC(c5ccccc5)c5ccccc5)nc(NCCN5CCCCC5)nc43)[C@H](O)[C@@H]2O)n1.O=C(O)C(F)(F)F.O=C(O)C(F)(F)F | MET |
| CCn1nnc([C@H]2O[C@@H](n3cnc4c(NCC(c5ccccc5)c5ccccc5)nc(NCCc5cccc(N)n5)nc43)[C@H](O)[C@@H]2O)n1.O=C(O)C(F)(F)F.O=C(O)C(F)(F)F.O=C(O)C(F)(F)F | MET |
| CCn1nnc(C2OC(n3cnc4c(NCc5cccc(I)c5)nc(NC5CCN(Cc6ccccc6)C5)nc43)C(O)C2O)n1.O=CO.O=CO (centres unmarked) | NOT MET |
| CCn1nnc(C2OC(n3cnc4c(NCCc5ccccc5)nc(NC5CCNC5)nc43)C(O)C2O)n1 (centres unmarked) | NOT MET |
| CCn1nnc(C2OC(n3cnc4c(NCCN5CCCCC5)nc(NC(CO)Cc5ccccc5)nc43)C(O)C2O)n1 (centres unmarked) | NOT MET |
| CC(C)C(CO)Nc1nc(NCC(c2ccccc2)c2ccccc2)c2ncn(C3OC(c4nnn(C)n4)C(O)C3O)c2n1 (centres unmarked) | NOT MET |
| Cn1nnc(C2OC(n3cnc4c(NC(CO)Cc5ccccc5)nc(NC(CO)Cc5ccccc5)nc43)C(O)C2O)n1 (centres unmarked) | NOT MET |
| CCn1nnc(C2OC(n3cnc4c(NCc5cccc(I)c5)nc(NC5CCNC5)nc43)C(O)C2O)n1 (centres unmarked) [Example 76] | NOT MET |
| Cn1nnc(C2OC(n3cnc4c(NCC(c5ccccc5)c5ccccc5)nc(NC5CCNC5)nc43)C(O)C2O)n1 (centres unmarked) | NOT MET |
| Cn1nnc(C2OC(n3cnc4c(NCC(c5ccccc5)c5ccccc5)nc(NCCN5CCCCC5)nc43)C(O)C2O)n1.O=CO.O=CO (centres unmarked) | MET |
| CCn1nnc([C@H]2O[C@@H](n3cnc4c(NCC(c5ccccc5)c5ccccc5)nc(NCCO)nc43)[C@H](O)[C@@H]2O)n1.O=C(O)C(F)(F)F | MET |
| CCn1nnc(C2OC(n3cnc4c(NCCc5ccccc5)nc(NC(CO)Cc5ccccc5)nc43)C(O)C2O)n1 (centres unmarked) | NOT MET |
| CC(C)n1nnc(C2OC(n3cnc4c(NC(CO)Cc5ccccc5)nc(NCCc5cn(C)cn5)nc43)C(O)C2O)n1 (centres unmarked) | MET |
| CCn1nnc([C@H]2O[C@@H](n3cnc4c(N)nc(NCCc5ccc(N)cc5)nc43)[C@H](O)[C@@H]2O)n1.O=CO | MET |
